- System Under Test: AXL (Homo sapiens, UniProt P30530)
- Sequence (P30530 26-894): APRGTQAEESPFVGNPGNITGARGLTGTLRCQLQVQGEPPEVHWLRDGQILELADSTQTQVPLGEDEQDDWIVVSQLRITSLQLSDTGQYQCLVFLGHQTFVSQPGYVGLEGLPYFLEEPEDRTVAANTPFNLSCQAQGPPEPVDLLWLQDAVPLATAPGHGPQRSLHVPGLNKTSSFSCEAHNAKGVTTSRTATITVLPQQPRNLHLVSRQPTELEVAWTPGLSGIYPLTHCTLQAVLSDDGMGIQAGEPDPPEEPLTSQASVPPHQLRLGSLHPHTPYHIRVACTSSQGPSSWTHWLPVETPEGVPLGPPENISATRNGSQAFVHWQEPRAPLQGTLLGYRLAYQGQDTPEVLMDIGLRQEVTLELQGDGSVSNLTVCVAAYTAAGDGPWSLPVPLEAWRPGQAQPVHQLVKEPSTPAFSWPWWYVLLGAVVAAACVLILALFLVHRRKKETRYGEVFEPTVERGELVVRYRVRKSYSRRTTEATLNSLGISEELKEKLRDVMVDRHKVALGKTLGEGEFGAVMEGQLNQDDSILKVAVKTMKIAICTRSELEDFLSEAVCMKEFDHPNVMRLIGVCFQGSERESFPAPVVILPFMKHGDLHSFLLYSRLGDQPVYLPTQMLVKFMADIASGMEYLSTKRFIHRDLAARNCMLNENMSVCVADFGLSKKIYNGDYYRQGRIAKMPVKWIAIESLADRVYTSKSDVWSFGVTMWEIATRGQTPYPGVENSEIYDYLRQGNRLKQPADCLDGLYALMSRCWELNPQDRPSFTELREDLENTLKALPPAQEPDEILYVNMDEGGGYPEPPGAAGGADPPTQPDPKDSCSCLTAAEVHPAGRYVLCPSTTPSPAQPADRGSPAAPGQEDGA
- Assay Info: AXL enzymatic assay (ADP-Glo)
- Assay type: biochemical
- Conditions: purified kinase, ATP 50 μM, read-out: AXL Enzymatic Inhibition (%)
IC50 for assorted molecules

I am curious: what IC50 value has been reported for `Cn1cc(-c2oc3ncnc(Oc4ccc(NC(=O)c5cc6c(n(-c7ccc(F)cc7)c5=O)CCCC6=O)cc4)c3c2-c2cccc(N)c2)cn1` ?
< 20 nM

I am curious: what IC50 value has been reported for `O=C(Nc1ccc(Oc2ncnc3ccsc23)cc1)c1cccn(-c2ccc(F)cc2)c1=O` ?
20 to 100 nM

I am curious: what IC50 value has been reported for `CC(=O)Nc1cccc(-c2c(-c3cnn(C)c3)oc3ncnc(Oc4ccc(NC(=O)c5c(C)n(C)n(-c6ccc(F)cc6)c5=O)cc4)c23)c1` ?
< 20 nM

***
I am curious: what IC50 value has been reported for `O=C(Nc1ccc(Oc2ncnc3[nH]c(-c4ccccc4)cc23)cc1)c1cccn(-c2ccc(F)cc2)c1=O` ?
100 to 50000 nM

I am curious: what IC50 value has been reported for `CC(=O)Nc1cccc(-c2c(-c3c(C)noc3C)oc3ncnc(Oc4ccc(NC(=O)c5cccn(-c6ccc(F)cc6)c5=O)cc4)c23)c1` ?
100 to 50000 nM

I am curious: what IC50 value has been reported for `CC(=O)Nc1cccc(-c2coc3ncnc(Oc4ccc(NC(=O)c5cccn(-c6ccc(F)cc6)c5=O)cc4)c23)c1` ?
20 to 100 nM

I am curious: what IC50 value has been reported for `Cn1cc(-c2cc3c(Oc4ccc(NC(=O)c5cccn(C6CCCCC6)c5=O)cc4)ncnc3o2)cn1` ?
100 to 50000 nM

I am curious: what IC50 value has been reported for `CN(C)c1cccc(-c2c[nH]c3ncnc(Oc4ccc(NC(=O)c5cccn(-c6ccc(F)cc6)c5=O)cc4)c23)c1` ?
100 to 50000 nM

I am curious: what IC50 value has been reported for `CN(C(=O)c1cccn(-c2ccc(F)cc2)c1=O)c1ccc(Oc2ncnc3oc(-c4cnn(C)c4)c(-c4cccc(N(C)S(C)(=O)=O)c4)c23)cc1` ?
100 to 50000 nM

I am curious: what IC50 value has been reported for `Cn1cc(-c2oc3ncnc(Oc4ccc(NC(=O)c5ccc[nH]c5=O)cc4)c3c2-c2cccc(N)c2)cn1` ?
100 to 50000 nM

I am curious: what IC50 value has been reported for `O=C(Nc1ccc(Nc2ncnc3[nH]cc(C#Cc4ccccc4)c23)cc1)c1cccn(-c2ccc(F)cc2)c1=O` ?
100 to 50000 nM

I am curious: what IC50 value has been reported for `O=C(Nc1ccc(Oc2ncnc3[nH]c(-c4ccsc4)cc23)cc1)c1cccn(-c2ccc(F)cc2)c1=O` ?
100 to 50000 nM

I am curious: what IC50 value has been reported for `CC(=O)Nc1cccc(-c2c(-c3cnn(C)c3)oc3ncnc(Oc4ccc(NC(=O)c5ccc(C)n(-c6ccc(F)cc6)c5=O)cc4)c23)c1` ?
< 20 nM

I am curious: what IC50 value has been reported for `O=C(Nc1ccc(Oc2nc(Cl)nc3[nH]ccc23)cc1)c1cccn(-c2ccc(F)cc2)c1=O` ?
100 to 50000 nM

----------
- System Under Test: MERTK (Homo sapiens, UniProt Q12866)
- Sequence (Q12866 21-999): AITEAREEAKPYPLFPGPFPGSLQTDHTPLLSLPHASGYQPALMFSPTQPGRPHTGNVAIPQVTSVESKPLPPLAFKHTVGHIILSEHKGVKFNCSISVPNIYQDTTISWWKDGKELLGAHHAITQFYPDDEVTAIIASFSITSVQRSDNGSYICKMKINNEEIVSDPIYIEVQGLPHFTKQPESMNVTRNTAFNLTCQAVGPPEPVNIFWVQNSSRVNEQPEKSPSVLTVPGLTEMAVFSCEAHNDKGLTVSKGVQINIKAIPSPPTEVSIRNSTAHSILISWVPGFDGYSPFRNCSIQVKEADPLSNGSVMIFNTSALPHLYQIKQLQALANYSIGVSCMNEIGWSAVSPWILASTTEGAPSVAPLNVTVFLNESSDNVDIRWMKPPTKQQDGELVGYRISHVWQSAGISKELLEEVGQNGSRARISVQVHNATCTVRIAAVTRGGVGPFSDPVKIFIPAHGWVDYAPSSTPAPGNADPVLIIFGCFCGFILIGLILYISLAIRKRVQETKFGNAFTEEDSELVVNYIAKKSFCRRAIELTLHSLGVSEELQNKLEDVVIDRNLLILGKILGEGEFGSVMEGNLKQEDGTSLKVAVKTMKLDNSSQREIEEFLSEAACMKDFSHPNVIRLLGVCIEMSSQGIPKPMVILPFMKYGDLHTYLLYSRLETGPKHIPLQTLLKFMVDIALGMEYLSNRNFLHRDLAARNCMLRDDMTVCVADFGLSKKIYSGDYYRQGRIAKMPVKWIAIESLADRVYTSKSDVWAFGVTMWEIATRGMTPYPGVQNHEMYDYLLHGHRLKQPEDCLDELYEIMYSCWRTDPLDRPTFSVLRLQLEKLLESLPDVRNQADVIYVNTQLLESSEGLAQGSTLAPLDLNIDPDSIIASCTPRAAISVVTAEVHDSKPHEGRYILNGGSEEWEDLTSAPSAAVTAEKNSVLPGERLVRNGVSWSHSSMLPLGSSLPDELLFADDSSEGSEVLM
- Assay Info: MERTK enzymatic assay (Kinase Glo)
- Format: biochemical
- Conditions: purified kinase, ATP 12 μM, read-out: MER Enzymatic Inhibition (%)
IC50 for assorted molecules

# example entries with known answers
So what IC50 did `CC(=O)Nc1cccc(-c2c(-c3cnn(C)c3)oc3ncnc(Oc4ccc(NC(=O)c5cccn(-c6ccc(F)nc6)c5=O)cc4)c23)c1` get with MERTK (Homo sapiens, UniProt Q12866)?
0.1 to 50 µM

So what IC50 did `Cn1cc(-c2cc3c(Oc4ccc(NC(=O)c5cccn(C6CCCCC6)c5=O)cc4)ncnc3o2)cn1` get with MERTK (Homo sapiens, UniProt Q12866)?
0.1 to 50 µM

So what IC50 did `CN(c1cccc(-c2c(-c3cnn(C)c3)oc3ncnc(Oc4ccc(NC(=O)c5cccn(-c6ccc(F)cc6)c5=O)cc4)c23)c1)S(C)(=O)=O` get with MERTK (Homo sapiens, UniProt Q12866)?
0.1 to 50 µM

So what IC50 did `O=C(Nc1ccc(Oc2ncnc3[nH]c(-c4ccsc4)cc23)cc1)c1cccn(-c2ccc(F)cc2)c1=O` get with MERTK (Homo sapiens, UniProt Q12866)?
0.1 to 50 µM

So what IC50 did `CC(=O)Nc1cccc(-c2c(-c3c(C)noc3C)oc3ncnc(Oc4ccc(NC(=O)c5cccn(-c6ccc(F)cc6)c5=O)cc4)c23)c1` get with MERTK (Homo sapiens, UniProt Q12866)?
0.1 to 50 µM

***
So what IC50 did `CC(=O)Nc1cccc(-c2c(-c3cc[nH]n3)oc3ncnc(Oc4ccc(NC(=O)c5cccn(-c6ccc(F)cc6)c5=O)cc4)c23)c1` get with MERTK (Homo sapiens, UniProt Q12866)?
0.1 to 50 µM

So what IC50 did `Cn1cc(-c2oc3ncnc(Oc4ccc(NC(=O)c5cn(C)n(-c6ccc(F)cc6)c5=O)cc4)c3c2-c2cccc(CN3CCNCC3)c2)cn1` get with MERTK (Homo sapiens, UniProt Q12866)?
0.1 to 50 µM
